target: BRD4(2) (Homo sapiens (Human))
procedureDetails: BROMOscan KD determination
Assay type: binding
conditions: BROMOscan KD ratio
propertyLabel: 4(1)/4(2)

>>> print(df.to_string())
                                 smilescode                          target  recordednumber
0  CC(=O)Nc1cccc(-c2ccc3c(c2)[C@H](Nc2ccccc2OC(F)(F)F)C[C@H](C)N3C(C)=O)c1  BRD4(2) (Homo sapiens (Human))            58.2
1  CC(=O)N1c2ccc(-c3cccc(-n4cccn4)c3)cc2[C@H](Nc2ccc(Cl)cc2)C[C@@H]1C  BRD4(2) (Homo sapiens (Human))            35.1
2  COC(=O)c1ccc(N[C@@H]2C[C@H](C)N(C(C)=O)c3ccc(-c4ccnn4C)cc32)cc1  BRD4(2) (Homo sapiens (Human))            12.7
3  CC(=O)Nc1cccc(-c2ccc3c(c2)[C@H](Nc2ccccc2C(F)(F)F)C[C@H](C)N3C(C)=O)c1  BRD4(2) (Homo sapiens (Human))            64.1
4  CC(=O)Nc1cccc(-c2ccc3c(c2)[C@H](Nc2ccc4ncccc4c2)C[C@H](C)N3C(C)=O)c1  BRD4(2) (Homo sapiens (Human))            13.1

(1) COC(=O)c1ccc(N[C@@H]2C[C@H](C)N(C(C)=O)c3ccc(-c4cccc(NCCC(F)(F)F)c4)cc32)cc1
(2) COC(=O)c1ccc(N[C@@H]2C[C@H](C)N(C(C)=O)c3ccc(-c4cccc(NC(C)=O)c4)cc32)cc1
(3) CCCOc1cccc(-c2ccc3c(c2)[C@H](Nc2ccc(C(=O)OC)cc2)C[C@H](C)N3C(C)=O)c1
I would appreciate it if you could sort these 3 compounds by 4(1)/4(2), starting from the smallest number. State the ranking by listing the labels in the requested order.
1, 3, 2

* * *

target: BRD2-BD2 (Homo sapiens (Human))
Sequence (P25440 344-453): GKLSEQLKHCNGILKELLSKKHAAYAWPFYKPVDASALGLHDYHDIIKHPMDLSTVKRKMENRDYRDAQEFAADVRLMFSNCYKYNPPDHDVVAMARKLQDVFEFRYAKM
procedureDetails: competitive TR-FRET assay, BET-BD with acetylated peptide ligand
Assay type: binding
conditions: BRD2-BD2; Table 11 additional modifications; read-out: 2.2 EC50
pEC50: −log10 of the molar value.
propertyLabel: pEC50

Please review the entries below; each comes with its answer.
                                   compound  recordednumber
0  CC(=O)Nc1cccc(-c2ccc3c(c2)[C@H](Nc2ccc(-c4nnn(C)n4)cc2)C[C@H](C)N3C(C)=O)c1 [compound 27]            7.46
1  CC(=O)N1c2ccc(-c3ccc4c(c3)OCCO4)cc2[C@H](NC(=O)OC(C)C)C[C@@H]1C [compound 77]            5.01

(a) CC(=O)Nc1cccc(-c2ccc3c(c2)[C@H](Nc2cccc(OC(F)(F)F)c2)C[C@H](C)N3C(C)=O)c1 [compound 22]
(b) CC(=O)Nc1cccc(-c2ccc3c(c2)[C@H](Nc2ccc(C(=O)CO)cc2)C[C@H](C)N3C(C)=O)c1 [compound 30]
When a and b are compared, which has the higher number for pEC50? Pick one; state its label.
b
(b: 7.70, a: 6.10)

(P) CC(=O)Nc1cccc(-c2ccc3c(c2)[C@H](NC(=O)c2ccccc2)C[C@H](C)N3C(C)=O)c1 [compound 62]
(Q) COc1cccc(-c2ccc3c(c2)[C@H](NC(=O)OC(C)C)C[C@H](C)N3C(C)=O)c1 [compound 3]
When P and Q are compared, which has the higher number for pEC50? Pick one; state its label.
Q
(Q: 6.07, P: 4.11)

(A) CCC(=O)N[C@@H]1C[C@H](C)N(C(C)=O)c2ccc(-c3cccc(NC(C)=O)c3)cc21 [compound 67]
(B) CC(=O)N1c2ccc(-c3ccc4[nH]ccc4c3)cc2[C@H](NC(=O)OC(C)C)C[C@@H]1C [compound 81]
Could you tell me which of A and B has the lower pEC50 reading? Pick one; state its label.
A
(A: 4.74, B: 5.33)

* * *

Recorded EC50, one value per entry.
Tested on: HDMB03 cells
procedureDetails: cell viability, CellTiter-Glo
Type: cell-based, human
conditions: Homo sapiens, HD-MB03, Table 7; read-out: EC50 (μM) HDMB03
Just the number please, in µM, no unit attached.

Please review the entries below; each comes with its answer.
                                 smilescode  propertylabel  recordednumber
0  CCCCNc1cccc(-c2ccc3c(c2)[C@H](Nc2ccc(C(=O)OC)cc2)C[C@H](C)N3C(C)=O)c1           EC50            0.56
1  COC(=O)c1ccc(N[C@@H]2C[C@H](C)N(C(C)=O)c3ccc(-c4cccc(NCCC(F)(F)F)c4)cc32)cc1           EC50            0.35
2  CCCNc1cccc(-c2ccc3c(c2)[C@H](Nc2ccc(C(=O)OC)cc2)C[C@H](C)N3C(C)=O)c1           EC50            0.35
3  COC(=O)c1ccc(N[C@@H]2C[C@H](C)N(C(C)=O)c3ccc(-c4cccc(NC(C)=O)c4)cc32)cc1           EC50            0.75
4  COC(=O)c1ccc(N[C@@H]2C[C@H](C)N(C(C)=O)c3ccc(-c4cccc(NCc5ccoc5)c4)cc32)cc1           EC50             1.5

Attention now shifts to the item below.
# lookup: EC50 of `CCCCCNc1cccc(-c2ccc3c(c2)[C@H](Nc2ccc(C(=O)OC)cc2)C[C@H](C)N3C(C)=O)c1`
0.39

* * *

target: BRD4-BD1 (Homo sapiens (Human))
procedureDetails: competitive TR-FRET assay, BET-BD with acetylated peptide ligand
Format: binding
conditions: BRD4-BD1; Table 11 additional modifications; read-out: 4.1 EC50
propertyLabel: EC50 (nM)

Please review the entries below; each comes with its answer.
                                 smilescode  recordednumber
0  CC(=O)Nc1cccc(-c2ccc3c(c2)[C@H](Nc2ccc(CN)cc2)C[C@H](C)N3C(C)=O)c1            1100
1  CC(=O)Nc1cccc(-c2ccc3c(c2)[C@H](Nc2ccc([N+](=O)[O-])cc2)C[C@H](C)N3C(C)=O)c1            2900
2  CC(=O)Nc1cccc(-c2ccc3c(c2)[C@H](NCc2ccc(C(F)(F)F)cc2)C[C@H](C)N3C(C)=O)c1           53000
3  CC(=O)N1c2ccc(-c3cccc(NC(=O)c4ccccc4)c3)cc2[C@H](NC(=O)OC(C)C)C[C@@H]1C             810
4  CC(=O)Nc1cccc(-c2ccc3c(c2)[C@H](Nc2ccc(-c4nnn(C)n4)cc2)C[C@H](C)N3C(C)=O)c1            2100

(A) CC(=O)Nc1cccc(-c2ccc3c(c2)[C@H](N)C[C@H](C)N3C(C)=O)c1
(B) CC(=O)N1c2ccc(-c3cccc(NC(=O)OC(C)(C)C)c3)cc2[C@H](NC(=O)OC(C)C)C[C@@H]1C
Could you tell me which of A and B has the lower EC50 reading? Pick one; state its label.
B

* * *

target: BRD3-BD1 (Homo sapiens (Human))
Sequence (Q15059 34-140): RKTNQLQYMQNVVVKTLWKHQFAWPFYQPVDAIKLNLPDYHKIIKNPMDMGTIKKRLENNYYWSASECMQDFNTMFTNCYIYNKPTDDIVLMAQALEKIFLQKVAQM
procedureDetails: competitive TR-FRET assay, BET-BD with acetylated peptide ligand
Format: binding
conditions: Table 6; read-out: EC50 (μM) BRD3(1)
propertyLabel: EC50 (µM)

Please review the entries below; each comes with its answer.
>>> df
                                 smilescode  propertylabel  recordednumber
0  CCCNc1cccc(-c2ccc3c(c2)[C@H](Nc2ccc(C(=O)OC)cc2)C[C@H](C)N3C(C)=O)c1           EC50               1
1  COC(=O)c1ccc(N[C@@H]2C[C@H](C)N(C(C)=O)c3ccc(-c4cccc(NCCC(F)(F)F)c4)cc32)cc1           EC50             1.9
2  CCCCCNc1cccc(-c2ccc3c(c2)[C@H](Nc2ccc(C(=O)OC)cc2)C[C@H](C)N3C(C)=O)c1           EC50             2.1

(1) COC(=O)c1ccc(N[C@@H]2C[C@H](C)N(C(C)=O)c3ccc(-c4cccc(NC(C)=O)c4)cc32)cc1
(2) CCCCNc1cccc(-c2ccc3c(c2)[C@H](Nc2ccc(C(=O)OC)cc2)C[C@H](C)N3C(C)=O)c1
(3) COC(=O)c1ccc(N[C@@H]2C[C@H](C)N(C(C)=O)c3ccc(-c4cccc(NCc5ccoc5)c4)cc32)cc1
Ordering criterion: EC50; begin with the maximum. State the ranking by listing the labels in the requested order.
2, 1, 3

* * *

target: BRD2-BD1 (Homo sapiens (Human), UniProt P25440)
Sequence (P25440 74-180): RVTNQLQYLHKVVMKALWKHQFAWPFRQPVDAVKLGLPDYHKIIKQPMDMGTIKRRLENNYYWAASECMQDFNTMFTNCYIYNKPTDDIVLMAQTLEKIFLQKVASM
procedureDetails: competitive TR-FRET assay, BET-BD with acetylated peptide ligand
Format: binding
conditions: BRD2-BD1; Table 11 additional modifications; read-out: 2.1 EC50
pEC50: −log10 of the molar value.
propertyLabel: pEC50

Please review the entries below; each comes with its answer.
>>> df
                                   compound  propertylabel  recordednumber
0  CC(=O)N1c2ccc(-c3cccc(CN)c3)cc2[C@H](NC(=O)OC(C)C)C[C@@H]1C          pEC50            5.68
1  CC(=O)Nc1cccc(-c2ccc3c(c2)[C@H](Nc2ccccc2C)C[C@H](C)N3C(C)=O)c1          pEC50            5.70
2  CC(=O)Nc1cccc(-c2ccc3c(c2)[C@H](Nc2ccccc2Cl)C[C@H](C)N3C(C)=O)c1 [compound 187]          pEC50            5.06
3  CC(=O)N(C)c1cccc(-c2ccc3c(c2)[C@H](Nc2ccc(Cl)cc2)C[C@H](C)N3C(C)=O)c1          pEC50            5.89

(I) CC(=O)N1c2ccc(-c3ccc(N(C)C)cc3)cc2[C@H](NC(=O)OC(C)C)C[C@@H]1C
(II) CC(=O)Nc1cccc(-c2ccc3c(c2)[C@H](Nc2ccc(-c4nnc(C)o4)cc2)C[C@H](C)N3C(C)=O)c1
(III) CC(=O)Nc1cccc(-c2ccc3c(c2)[C@H](Nc2cccc(C(F)(F)F)c2)C[C@H](C)N3C(C)=O)c1
Ordering criterion: pEC50; begin with the maximum. State the ranking by listing the labels in the requested order.
II, I, III

The origin of these recorded values is patent US11028051B2.
